- System: human breast cancer (MCF-7) cells
- protocol.details: Cytotoxicity (MTT) in the dark or upon exposure to ultrasound radiation
- Assay type: cell-based
- particulars: MCF-7, dark; 4 h incubation, then 44 h; concentrations correspond to the platinum complex; 2880 min
observable: IC50 (µM)
Answers are plain numbers, in µM.

[Q] Tell me the measured IC50 of "O=C1[O][Pt]2([NH][C@@H]3CCCC[C@H]3[NH]2)[O]C1=O" , please.
[A] 24.5

----------
- System: human breast cancer (MCF-7) cells
- protocol.details: Cytotoxicity (MTT) in the dark or upon exposure to ultrasound radiation
- Type: cell-based
- particulars: MCF-7, ultrasound (1.5 W/cm^2, 2 min); 4 h incubation, then 44 h; concentrations correspond to the platinum complex
- Method: 6 × 10^3 cells were seeded onto 96-well plates and allowed to adhere overnight. The cells were treated with increasing concentrations of the compound which was diluted in cell media to a total volume of 200 µL. The cells were incubated with the compound for 4 h and after this time the medium refreshed. […] Using a 620 nm reference wavelength, the absorption of the formazan was measured at 550 nm with an Infinite M Nano plus Microplate reader (Tecan). […]
observable: IC50 (µM)
Give bare numbers, in µM.

[Q] Tell me the measured IC50 of "O=C1[O][Pt]2([NH][C@@H]3CCCC[C@H]3[NH]2)[O]C1=O" , please.
[A] 22.4
